Here, compounds appear alongside Ki reported for Carbonic anhydrase 13 (Mus musculus, UniProt Q9D6N1) in the literature.
assay readout: Ki (µM)

smiles | assay target | Ki, µM
NCc1ccc2oc(=O)ccc2c1 | Carbonic anhydrase 13 (Mus musculus, UniProt Q9D6N1) | 0.04
Nc1ccc(S(=O)(=O)NCc2ccc(S(N)(=O)=O)cc2)cc1 | Carbonic anhydrase 13 (Mus musculus, UniProt Q9D6N1) | 0.0019
O=C(NCCNCCCNCCNC(=O)C(F)(F)F)C(F)(F)F | Carbonic anhydrase 13 (Mus musculus, UniProt Q9D6N1) | 131

[P] Nc1ccccc1S(N)(=O)=O
[Q] O=C(NCCCNCCCCNCCCNC(=O)C(F)(F)F)C(F)(F)F
[R] Nc1ccc(S(=O)(=O)Nc2ccc(S(N)(=O)=O)cc2)cc1
Order the entries by their reported Ki, beginning at the minimum. Labels, ranked as asked.
R, P, Q

----------
Here, compounds appear alongside Ki reported for Carbonic anhydrase 13 (Mus musculus) in the literature.
assay readout: Ki (µM)

These solved cases illustrate the format of a correct answer.
smiles | assay target | Ki / µM
COc1ccc2oc(=O)c(C(=O)O)cc2c1 | Carbonic anhydrase 13 (Mus musculus) | 8.1
COc1cc(/C=C/C(=O)OCCc2ccc(O)cc2)ccc1O | Carbonic anhydrase 13 (Mus musculus) | 0.93

[A] Nc1ccc(S(N)(=O)=O)cc1F
[B] NCCNCCCNCCN
Among A and B , which shows a numerically higher Ki result? Give the label of your selection.
B

----------
Here, molecules appear alongside pKi reported for UniProtKB Q9D6N1 in the literature.
pKi: −log10 of the molar value.
assay readout: pKi

These solved cases illustrate the format of a correct answer.
smiles | value reported
O=C(O)c1ccc(O)cc1 | 5.11
NCCNCCNCCN | 4.28
CC1(C)OB(c2ccc(NS(N)(=O)=O)cc2)OC1(C)C | 6.00
O=C1C[C@H]2C[C@H](C[C@H](CCc3ccc(O)cc3O)O2)O1 | 6.47
O=c1ccc2cc(C[N+]34CN5CN(CN(C5)C3)C4)ccc2o1 | 5.42
O=c1ccc2ccc(CCc3ccccc3)cc2o1 | 5.14
COc1ccc2c(C(=O)O)cc(=O)oc2c1 | 7.35
O=C1C=CC[C@H](C[C@@H](O)CCc2ccc(O)cc2O)O1 | 5.09

[1] NCCCCNCCCN
[2] O=C(/C=C/c1ccc(O)c(O)c1)OCCc1ccc(OCCc2ccc(O)cc2)cc1
[3] Nc1ccc(S(N)(=O)=O)cc1I
[4] CC(C)(C)OC(=O)N(CCCCN(CCCNC(=O)C(F)(F)F)C(=O)OC(C)(C)C)CCCNC(=O)C(F)(F)F
[5] CCCOc1ccc2ccc(=O)oc2c1
Order the entries by their reported pKi, beginning at the minimum. Labels, ranked as asked.
4, 1, 5, 2, 3
(4: 3.75, 1: 4.94, 5: 5.18, 2: 6.08, 3: 7.30)

[1] Nc1ccc(S(N)(=O)=O)cc1Cl
[2] O=C1C[C@H]2C[C@H](C[C@H](CCc3ccc(O)cc3)O2)O1
[3] O=C(/C=C/c1ccc(O)cc1)OCCc1ccc(O)cc1
Order the entries by their reported pKi, beginning at the minimum. Labels, ranked as asked.
3, 2, 1
(3: 4.86, 2: 6.04, 1: 7.25)

[a] O=C(/C=C/c1ccc(O)c(O)c1)OCCc1cccc(OCCc2cccc(O)c2)c1
[b] COC(=O)c1cc2cc(CO)ccc2oc1=O
Would you mind telling me which has the lower recorded pKi between a and b ? Give the label of your selection.
b
(b: 5.13, a: 6.05)

[P] NS(=O)(=O)OCCCCCCCCCCOS(N)(=O)=O
[Q] NCCCNCCCCNCCCN
Among P and Q , which shows a numerically higher pKi result? Give the label of your selection.
P
(P: 6.02, Q: 4.65)

[I] COc1cc(/C=C/C(=O)OCCc2cccc(O)c2)ccc1O
[II] O=C1C=CC[C@H](C[C@@H](O)CCc2cc(Br)c(O)cc2Br)O1
[III] NS(=O)(=O)OCCCCCCCCOS(N)(=O)=O
[IV] O=c1ccc2cc(CO)ccc2o1
Rank by pKi (largest to smallest). Labels, ranked as asked.
IV, III, I, II
(IV: 7.33, III: 6.24, I: 6.04, II: 5.10)

[a] CCOC(=O)c1cc2ccc(OC)cc2oc1=O
[b] O=c1oc2c(O)c(O)cc3c(=O)oc4c(O)c(O)cc1c4c23
Among a and b , which shows a numerically higher pKi result? Give the label of your selection.
a
(a: 7.35, b: 4.99)

[a] CC(C)(C)OC(=O)N(CCCN)CCCCN(CCCN)C(=O)OC(C)(C)C
[b] O=C(/C=C/c1ccc(O)cc1)OCc1ccccc1
Among a and b , which shows a numerically higher pKi result? Give the label of your selection.
b
(b: 5.05, a: 3.87)
